system: HT29 sg-Ctrl (RNF43 wildtype); experiment: cell viability activity relative to DMSO (negative = inhibition); higher = more viable cells (less growth inhibition); settings: 5 µM; 96 h
// classify: if (cell viability activity < -80%) true (1) else false (0)

Consider the worked cases shown below.
{"columns": ["structure-notation", "study-system", "class"],
 "data": [
  ["COC(=O)Nc1ccc(-c2nc(N3CCOCC3)c3cnn(C4CCN(C(=O)OC)CC4)c3n2)cc1", "HT29 sg-Ctrl (RNF43 wildtype)", "false (0)"],
  ["Cc1ccc(-n2nc(C(C)(C)C)cc2NC(=O)NCc2cc(F)ccc2Oc2ccc3c(cnn3CCO)c2)cc1", "HT29 sg-Ctrl (RNF43 wildtype)", "false (0)"],
  ["COc1ccc(S(=O)(=O)N(C(C)=O)c2ccccc2/C=C/c2cc[n+]([O-])cc2)cc1", "HT29 sg-Ctrl (RNF43 wildtype)", "false (0)"],
  ["CN(c1ncccc1CNc1nc(Nc2ccc3c(c2)CC(=O)N3)ncc1C(F)(F)F)S(C)(=O)=O", "HT29 sg-Ctrl (RNF43 wildtype)", "true (1)"],
  ["CC[C@@H](C)Nc1cc(C(=O)N[C@H]2C[C@H]3CC[C@@H](C2)N3c2ccc(C(=O)C3CC3)cn2)c(C)cc1C(N)=O", "HT29 sg-Ctrl (RNF43 wildtype)", "true (1)"]
]}

QUERY: Answer whether the molecule Nc1ccccc1NC(=O)c1ccc(CNC(=O)OCc2cccnc2)cc1 has cell viability activity strictly less than -80%
RESULT: false (0)
